# Experimental System: human ANO6 (Homo sapiens)
# Construct: expressed in transfected cells
# Run Description: YFP quenching assay (ANO6 ion channel activity)
# Assay type: cell-based
# Condition Set: test compound 30 μM, 10 μM ionomycin, read-out: Inhibition Level 30 μM
Endpoint Name: inhibition at 30 µM

Consider the following illustrative entries.
# Compound String, Experimental System, Measurement
records = [
    ("Cc1ccc(CNC(=O)c2cccc(Nc3ccnc(-c4cccc(F)c4)n3)c2)o1", "human ANO6 (Homo sapiens)", "< 30%"),
    ("CC(C)c1ccc(CNC(=O)c2cccc(Nc3ccc(-c4ccc(F)cc4)nn3)c2)cc1", "human ANO6 (Homo sapiens)", "≥ 60%"),
    ("CCN(CC)c1ccc(CNC(=O)c2cccc(Nc3ccc(-c4ccccc4)nn3)c2)cc1", "human ANO6 (Homo sapiens)", "≥ 60%"),
    ("Cc1cccc(-c2ccc(Nc3cccc(C(=O)NCC(C)C)c3)nn2)c1", "human ANO6 (Homo sapiens)", "≥ 60%"),
    ("O=C(NCCc1ccccc1)c1cccc(Nc2ccc(-c3ccc(F)cc3)nn2)c1", "human ANO6 (Homo sapiens)", "≥ 60%"),
]

Can you look up inhibition at 30 µM on human ANO6 (Homo sapiens) for Cc1ccc(CNC(=O)c2cccc(Nc3cnc(-c4ccccc4)cn3)c2)o1 ?
≥ 60%

API: value(readout= inhibition at 30 µM, system= human ANO6 (Homo sapiens), query= O=C(NCc1ccc(F)cc1)c1cccc(Nc2ccc(-c3ccccc3)nn2)c1 )
≥ 60%

Lab note: need inhibition at 30 µM for O=C(NC1CCCC1)c1cccc(Nc2ccc(-c3ccccc3)nn2)c1 on human ANO6 (Homo sapiens), anyone have it?
≥ 60%

Identify the measured inhibition at 30 µM of O=C(Nc1cccc(F)c1)c1cccc(Nc2ccc(-c3ccc(F)cc3)nn2)c1 for human ANO6 (Homo sapiens).
≥ 60%

Please state recorded inhibition at 30 µM (tested on human ANO6 (Homo sapiens)) of O=C(NCc1ccc(Br)cc1)c1cccc(Nc2ccc(-c3ccccc3)nn2)c1
≥ 60%

Report inhibition at 30 µM for O=C(NCCCN1CCCC1)c1cccc(Nc2ccc(-c3ccccc3)nn2)c1 tested on human ANO6 (Homo sapiens).
< 30%

Please state recorded inhibition at 30 µM (tested on human ANO6 (Homo sapiens)) of NC(=O)c1cccc(Nc2ccc(-c3ccccc3)nn2)c1
30 to 60%

Missing value: inhibition at 30 µM, human ANO6 (Homo sapiens), entry O=C(NCc1ccccc1Cl)c1cccc(Nc2ccc(-c3ccccc3)nn2)c1 . Fill in?
≥ 60%

Identify the measured inhibition at 30 µM of CCN(CC)CCCNC(=O)c1cccc(Nc2ccc(-c3ccccc3)nn2)c1 for human ANO6 (Homo sapiens).
30 to 60%

So what inhibition at 30 µM did Cc1ccc(-c2ccc(Nc3cccc(C(=O)NCc4ccc(Cl)cc4)c3)nn2)cc1 get with human ANO6 (Homo sapiens)?
30 to 60%

What is its inhibition at 30 µM for human ANO6 (Homo sapiens)? Entry: CCOCCCNC(=O)c1cccc(Nc2ccc(-c3ccccc3)nn2)c1
≥ 60%

What measured inhibition at 30 µM is associated with Cc1ccc(CNC(=O)c2cccc(Nc3ccc(-c4ccncc4)nn3)c2)o1 on human ANO6 (Homo sapiens)?
≥ 60%

Observed inhibition at 30 µM on human ANO6 (Homo sapiens) for Cc1ccc(CNC(=O)c2cccc(Nc3ccc(-c4ccccc4)nn3)c2)cc1 , please.
≥ 60%

###

# Experimental System: human ANO6 (Homo sapiens, UniProt Q4KMQ2)
# Construct: expressed in transfected cells
# Run Description: LACT C2 assay (phosphatidylserine scramblase function assay)
# Type: cell-based
# Condition Set: test compound 100 nM, FRT cells expressing human ANO6, 10 μM ionomycin, read-out: Inhibition Level 100 nM
Below: a set of entries, each annotated with reported inhibition at 0.1 µM.

Known results for compounds:
# Compound, inhibition at 0.1 µM
records = [
    ("O=C(Nc1ccc(Cl)c(Cl)c1)c1cccc(Nc2ncc(-c3cccc(F)c3)cn2)c1 [Compound 118]", "≥ 60%"),
    ("O=C(NCCc1ccc(Cl)cc1)c1cccc(Nc2ccc(-c3ccccc3)nn2)c1 [Compound A45]", "30 to 60%"),
    ("CN1CCC(C2CC2NC(=O)c2cccc(Nc3ccc(-c4cccc(F)c4)cn3)c2)CC1 (centres unmarked) [Compound 144]", "< 30%"),
]

What value of inhibition at 0.1 µM has been reported for the following compound? O=C(N[C@@H]1C[C@H]1c1ccccc1)c1ccnc(Nc2ncc(-c3ccccc3)cn2)c1 [Compound 178]
30 to 60%

Reported inhibition at 0.1 µM for O=C(NC1(c2ccc(F)cc2)CC1)c1cccc(Nc2ccc(-c3ccccc3)nn2)c1 [Compound 196] : what is it?
< 30%

Which inhibition at 0.1 µM reading was recorded for the compound CN1CCN(c2cc(CNC(=O)c3cccc(Nc4ccc(-c5ccccc5)nn4)c3)ccc2F)CC1 [Compound 227] ?
< 30%

I have this compound here, O=C(Nc1nccs1)c1cccc(Nc2ncc(-c3cccc(F)c3)cn2)c1 [Compound 138] , and I need its recorded inhibition at 0.1 µM.
< 30%

// inhibition at 0.1 µM lookup, key: O=C(NCc1ccccc1Br)c1cccc(Nc2ncc(-c3cccc(F)c3)cn2)c1 [Compound 216]
< 30%

###

# Experimental System: human ANO6 (Homo sapiens, UniProt Q4KMQ2)
# Construct: expressed in transfected cells
# Sequence (Q4KMQ2 1-931 isoform Q4KMQ2-2): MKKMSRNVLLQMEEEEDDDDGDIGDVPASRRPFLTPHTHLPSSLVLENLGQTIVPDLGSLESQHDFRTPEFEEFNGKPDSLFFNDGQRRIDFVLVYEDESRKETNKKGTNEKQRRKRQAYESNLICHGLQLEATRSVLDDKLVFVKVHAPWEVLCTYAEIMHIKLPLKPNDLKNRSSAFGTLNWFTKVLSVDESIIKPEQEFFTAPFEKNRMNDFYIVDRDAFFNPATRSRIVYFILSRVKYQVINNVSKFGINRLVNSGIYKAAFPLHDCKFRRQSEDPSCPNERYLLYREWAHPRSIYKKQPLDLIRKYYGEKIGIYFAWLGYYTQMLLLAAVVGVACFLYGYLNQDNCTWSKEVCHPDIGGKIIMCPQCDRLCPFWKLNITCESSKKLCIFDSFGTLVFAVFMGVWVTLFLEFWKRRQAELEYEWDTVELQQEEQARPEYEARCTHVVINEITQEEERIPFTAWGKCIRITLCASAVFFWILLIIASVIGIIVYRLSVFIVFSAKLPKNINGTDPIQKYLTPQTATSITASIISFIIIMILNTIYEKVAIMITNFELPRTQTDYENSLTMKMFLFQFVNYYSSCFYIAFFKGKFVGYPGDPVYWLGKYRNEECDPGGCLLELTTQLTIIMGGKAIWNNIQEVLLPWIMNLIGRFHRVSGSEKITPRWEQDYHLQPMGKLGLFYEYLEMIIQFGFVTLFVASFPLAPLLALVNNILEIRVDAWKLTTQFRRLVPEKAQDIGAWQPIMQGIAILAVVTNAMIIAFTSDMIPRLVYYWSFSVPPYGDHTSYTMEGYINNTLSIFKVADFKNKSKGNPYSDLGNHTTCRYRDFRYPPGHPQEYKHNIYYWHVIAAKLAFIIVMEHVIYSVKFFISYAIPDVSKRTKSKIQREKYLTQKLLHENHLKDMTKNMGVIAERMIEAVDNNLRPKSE
# Run Description: LACT C2 assay (phosphatidylserine scramblase function assay)
# Assay type: cell-based
# Condition Set: test compound 100 nM, FRT cells expressing human ANO6, 10 μM ionomycin, read-out: Inhibition Level 100 nM
Endpoint Name: inhibition at 0.1 µM

# Compound String, inhibition at 0.1 µM
records = [
    ("CC(C)CCNC(=O)c1cccc(Nc2ccc(-c3ccccc3)nn2)c1", "30 to 60%"),
    ("COc1ccc([C@@H]2C[C@H]2NC(=O)c2cccc(Nc3ccc(-c4ccccc4)nn3)c2)cc1", "< 30%"),
    ("CCOc1ccc(NC(=O)c2cccc(Nc3ccc(-c4ccccc4)nn3)c2)cc1", "< 30%"),
    ("O=C(N[C@@H]1C[C@H]1c1ccccc1)c1cccc(Nc2ccc(-c3ccccc3)cn2)c1", "≥ 60%"),
    ("O=C(NCc1c(F)cc(F)cc1F)c1cccc(Nc2ncc(-c3cccc(F)c3)cn2)c1", "< 30%"),
]

Form: Entry = O=C(Nc1cccc(F)c1)c1cccc(Nc2ncc(-c3cccc(F)c3)cn2)c1 | System = human ANO6 (Homo sapiens, UniProt Q4KMQ2) | inhibition at 0.1 µM = ____
< 30%

Test system human ANO6 (Homo sapiens, UniProt Q4KMQ2); read-out inhibition at 0.1 µM; what value for O=C(N[C@@H]1C[C@H]1c1ccc(F)cc1)c1cccc(Nc2ccc(-c3ccccc3)nn2)c1 ?
≥ 60%

What measured inhibition at 0.1 µM is associated with O=C(NCC1CCCCC1)c1cccc(Nc2ccc(-c3ccccc3)nn2)c1 on human ANO6 (Homo sapiens, UniProt Q4KMQ2)?
< 30%
